target.desc: T1, Anti-CD28 Fab (SEQ ID NOs: 696, 697)
T1 construct: Biotinylated and captured on neutravidin coated plates in the phage ELISA
run.description: phage binding ELISA; biotinylated Fab on neutravidin plate, clonal phage supernatant, anti-M13 HRP;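 note: clones picked after panning, added to wells pre-incubated with CD28 antigen or with blocking buffer only, no wash before phage addition, bound phage read after washing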
Where no end group is shown, it is not given here.
result.type: Anti-CD28 Fab (SEQ ID NOs: 696, 697) signal

binder: YCEGHLPQYMAKCL (cysteine pairing not given here; also: displayed on phage as fusion to pIII, linker, pIII sequence and order not given here, Clonal phage supernatant; not shown: pIII filament protein of the bacteriophage to which the peptide is fused) [Phage-533]
value: 2.34

binder: YCDGHLPEYREKCF (cysteine pairing not given here; also: displayed on phage as fusion to pIII, linker, pIII sequence and order not given here, Clonal phage supernatant; not shown: pIII filament protein of the bacteriophage to which the peptide is fused) [Phage-538]
value: 2.32

binder: YCDGHSPLYMWKCL (cysteine pairing not given here; also: displayed on phage as fusion to pIII, linker, pIII sequence and order not given here, Clonal phage supernatant; not shown: pIII filament protein of the bacteriophage to which the peptide is fused) [Phage-534]
value: 2.34
